Target: SARM1 (50-724) (Homo sapiens, UniProt Q6SZW1)
Sequence (Q6SZW1 50-724): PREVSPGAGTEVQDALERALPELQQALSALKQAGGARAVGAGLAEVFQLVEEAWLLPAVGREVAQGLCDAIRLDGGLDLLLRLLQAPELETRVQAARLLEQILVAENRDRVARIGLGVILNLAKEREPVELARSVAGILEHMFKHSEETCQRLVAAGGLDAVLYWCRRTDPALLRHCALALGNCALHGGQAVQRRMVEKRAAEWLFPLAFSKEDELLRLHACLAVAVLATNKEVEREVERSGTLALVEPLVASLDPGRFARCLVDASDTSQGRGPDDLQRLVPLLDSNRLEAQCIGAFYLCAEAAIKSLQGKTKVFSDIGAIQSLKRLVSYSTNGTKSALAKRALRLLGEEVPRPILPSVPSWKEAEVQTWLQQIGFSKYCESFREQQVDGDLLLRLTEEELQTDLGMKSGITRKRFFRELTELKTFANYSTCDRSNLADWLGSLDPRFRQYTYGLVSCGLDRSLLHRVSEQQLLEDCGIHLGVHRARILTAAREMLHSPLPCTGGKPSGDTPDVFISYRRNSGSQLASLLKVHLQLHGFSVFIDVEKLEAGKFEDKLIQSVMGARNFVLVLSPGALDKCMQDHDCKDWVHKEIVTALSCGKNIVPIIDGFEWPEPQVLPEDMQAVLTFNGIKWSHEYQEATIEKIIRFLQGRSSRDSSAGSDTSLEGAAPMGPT
Assay: biochemical
quantity: IC50

{"molecule": "Cc1c(Cl)c(C(C)Nc2ccc3cc[nH]c(=O)c3c2)nn1CC(F)(F)F (racemic)", "result": "< 100 nM"}
{"molecule": "NC(=O)c1cccc2ccc(NS(=O)(=O)c3cccc(Cl)c3Cl)cc12", "result": "100 to 500 nM"}
{"molecule": "CC1(C)C(=O)Nc2cc(NC(CCO)c3nc(Cl)c(Cl)s3)ccc21 (racemic)", "result": "< 100 nM"}

In the following, a different molecule is considered.
Memo: CC(Nc1ccc2cc[nH]c(=O)c2c1)c1cccc(F)c1 (racemic) , reported IC50: 500 to 1000 nM

----------
target: SARM1 (50-724) (Homo sapiens, UniProt Q6SZW1); assay: biochemical
Would you kindly list IC50 for each of these compounds?

{"compound": "CC1(C)CN(C(N)=O)c2cc(NS(=O)(=O)c3cccc(Cl)c3Cl)ccc21 [Compound 242]", "IC50": "< 100 nM"}
{"compound": "O=c1[nH]cnc2ccc(NS(=O)(=O)c3cccc(Cl)c3Cl)cc12 [Compound 23]", "IC50": "100 to 500 nM"}
{"compound": "CC1(C)C(=O)Nc2cc(NS(=O)(=O)c3cccc(Cl)c3Cl)ccc21 [Compound 204]", "IC50": "< 100 nM"}
{"compound": "Cc1nn(CC(N)=O)c(=O)c2cc(NC(C)c3c(Cl)ccc(F)c3Cl)ccc12 (racemic) [Compound 300]", "IC50": "< 100 nM"}
{"compound": "Cc1n[nH]c(=O)c2cc(NC(C)c3nccc(Cl)c3Cl)ccc12 (racemic) [Compound 266]", "IC50": "< 100 nM"}
{"compound": "CC(C)(O)C(Nc1ccc2cc[nH]c(=O)c2c1)c1cccc(Cl)c1Cl (racemic) [Compound 253]", "IC50": "< 100 nM"}

// for each compound in input: emit IC50
1. Cc1ccc(F)cc1C(C)Nc1ccc2c(c1)C(=O)NCC2 (racemic) [Example 105]
2. CC1(C)CN(C(=O)c2cc[nH]c(=O)c2)c2cc(NS(=O)(=O)c3cccc(Cl)c3Cl)ccc21 [Compound 326]
3. CC(Nc1ccc2cc[nH]c(=O)c2c1)c1cc(Cl)cnc1Cl (racemic) [Example 122]
4. CC(Nc1ccc2c(C(F)F)n(CC(N)=O)nc2c1)c1nc(Cl)c(Cl)s1 (single isomer, unassigned) [Compound 355A]
5. CC(Nc1ccc2c(c1)NC(=O)OC2)c1cccc(Cl)c1Cl (stereo not shown) [Example 181]
6. Cc1c2ccc(NS(=O)(=O)c3cccc(Cl)c3Cl)cc2nn1C [Compound 72]
7. CC(Nc1ccc2ccn(C)c(=O)c2c1)c1c(Cl)cccc1Cl (racemic) [Example 151]

Result:
1: 100 to 500 nM; 2: < 100 nM; 3: 500 to 1000 nM; 4: < 100 nM; 5: 100 to 500 nM; 6: < 100 nM; 7: 100 to 500 nM

// for each compound in input: emit IC50
1. COc1nccc(C(C)Nc2ccc3c(c2)C(=O)NCC3)c1Cl (single isomer, unassigned) [Example 95]
2. [2H]C(C)(Nc1ccc2c(C)n(CC(N)=O)nc2c1)c1nc(Cl)c(Cl)s1 (single isomer, unassigned) [Compound 378]
3. CC(Nc1ccc2c(c1)C(=O)NCC2)c1cccc(F)c1F (racemic) [Example 106]

Result:
1: 500 to 1000 nM; 2: > 1000 nM; 3: > 1000 nM

----------
Target: SARM1 (50-724) (Homo sapiens, UniProt Q6SZW1)
Sequence (Q6SZW1 50-724): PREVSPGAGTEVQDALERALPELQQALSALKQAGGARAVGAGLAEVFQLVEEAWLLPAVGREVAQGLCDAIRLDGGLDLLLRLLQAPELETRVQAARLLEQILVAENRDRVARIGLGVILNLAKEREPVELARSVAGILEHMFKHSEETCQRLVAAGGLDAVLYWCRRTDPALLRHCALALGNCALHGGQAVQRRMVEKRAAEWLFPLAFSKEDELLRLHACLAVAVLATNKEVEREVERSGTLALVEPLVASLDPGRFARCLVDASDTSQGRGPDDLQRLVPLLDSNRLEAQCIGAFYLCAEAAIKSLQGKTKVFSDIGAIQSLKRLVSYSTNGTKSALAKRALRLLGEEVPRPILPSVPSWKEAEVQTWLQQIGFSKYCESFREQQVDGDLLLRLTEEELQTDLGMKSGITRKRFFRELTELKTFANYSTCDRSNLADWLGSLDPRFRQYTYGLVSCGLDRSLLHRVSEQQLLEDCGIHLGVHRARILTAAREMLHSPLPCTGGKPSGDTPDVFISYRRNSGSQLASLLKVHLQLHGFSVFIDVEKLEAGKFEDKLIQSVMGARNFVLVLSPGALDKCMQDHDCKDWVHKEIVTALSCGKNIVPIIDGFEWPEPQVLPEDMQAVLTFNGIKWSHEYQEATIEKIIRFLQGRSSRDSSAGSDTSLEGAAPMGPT
Experiment: biochemical
quantity: IC50

{"compound": "CC(Nc1ccc2c(c1)C(=O)NC2)c1cccc(Cl)c1Cl (racemic)", "result": "> 1000 nM"}
{"compound": "CC(Nc1cc(F)c2ncn(-c3cn[nH]c3)c(=O)c2c1)c1nc(Cl)c(Cl)s1 (single isomer, unassigned)", "result": "< 100 nM"}
{"compound": "Cc1c(F)cccc1[S+]([O-])Nc1ccc2c(c1)C(=O)NCC2 (centres unmarked)", "result": "> 1000 nM"}
{"compound": "O=c1[nH]ccc2ccc(OC(CO)c3cccc(Cl)c3Cl)cc12 (centres unmarked)", "result": "100 to 500 nM"}
{"compound": "O=S(=O)(Nc1cccc(-c2ncco2)c1)c1cccc(Cl)c1Cl", "result": "100 to 500 nM"}

// for each compound in input: emit IC50
1. NC(=O)Cc1ccc(NS(=O)(=O)c2cccc(Cl)c2Cl)cc1
2. CC(Nc1ccc2ccn(CC(N)=O)c(=O)c2c1)c1nc(Cl)c(Cl)s1 (racemic)
3. CC(Nc1ccc2cn[nH]c(=O)c2c1)c1c(Cl)ccc(Cl)c1Cl (racemic)
4. Cc1cccc(C(C)Nc2ccc3c(c2)C(=O)NCC3)c1F (racemic)

Result:
100 to 500 nM
< 100 nM
< 100 nM
> 1000 nM

// for each compound in input: emit IC50
1. Cc1cccc(C)c1S(=O)(=O)Nc1ccc2c(c1)C(=O)NCC2
2. Cc1c(F)cccc1S(=O)(=O)Nc1cccc(-c2cnn(C)c2)c1
3. CC(Nc1ccc2cc[nH]c(=O)c2c1)c1cc(Cl)cc(Cl)c1Cl (racemic)
4. O=c1[nH]cc(F)c2ccc(NS(=O)(=O)c3cccc(Cl)c3Cl)cc12
5. CC(Nc1ccc2cnn(C)c(=O)c2c1)c1cccc(Cl)c1Cl (racemic)

Result:
["500 to 1000 nM", "> 1000 nM", "< 100 nM", "< 100 nM", "100 to 500 nM"]

----------
Would you kindly list pIC50 for each of these molecules?
molecular target: SARM1 (50-724) (Homo sapiens); assay: biochemical
pIC50: −log10 of the molar value.

Please review the entries below; each comes with its answer.
{"molecule": "N#Cc1cccc2ccc(NS(=O)(=O)c3cccc(Cl)c3Cl)cc12", "pIC50": "6.30 to 7.00"}
{"molecule": "C[C@H](Nc1ccc2ccnc(O)c2c1)c1cccc(Cl)c1", "pIC50": "6.30 to 7.00"}
{"molecule": "CC(Nc1cc(F)c2ncn(-c3ccn[nH]3)c(=O)c2c1)c1nc(Cl)c(Cl)s1 (racemic) [Example 356rac]", "pIC50": "> 7.00"}
{"molecule": "CC(Nc1ccc2snc(C(=O)N3CC(O)C3)c2c1)c1nc(Cl)c(Cl)s1 (racemic)", "pIC50": "> 7.00"}
{"molecule": "CCC(Nc1ccc2c(c1)C(=O)NCC2)c1cc(C)cc(F)c1 (racemic)", "pIC50": "6.30 to 7.00"}
{"molecule": "CC1CCN(S(=O)(=O)Nc2ccc3c(c2)C(=O)NCC3)CC1", "pIC50": "< 6.00"}
{"molecule": "CC(Nc1ccc2c(C(F)F)n(CC(N)=O)nc2c1)c1nc(Cl)c(Cl)s1 (single isomer, unassigned) [Compound 355B]", "pIC50": "< 6.00"}
{"molecule": "CC(Nc1ccc2ccn(C)c(=O)c2c1)c1cncc(Cl)c1Cl (racemic)", "pIC50": "6.30 to 7.00"}

// for each molecule in input: emit pIC50
1. Cc1n[nH]c2cc(NS(=O)(=O)c3c(Cl)ccc(Cl)c3Cl)ccc12
2. Cc1n[nH]c(=O)c2cc(NC(C)c3nc(Cl)c(Cl)s3)ccc12 (single isomer, unassigned) [Example 239B]
3. Cc1cc(F)cc(C(CO)Nc2ccc3c(c2)C(=O)NCC3)c1 (centres unmarked)

Result:
1. > 7.00
2. < 6.00
3. < 6.00
